B1: H2-Kb / Ed40 (parent complex)
chain 1: GDSVTQTEGPVTVSESESLIINCTYSATSIAYPNLFWYVRYPGEGLQLLLKVITAGQKGSSRGFEATYNKETTSFHLQKASVQESDSAVYYCALGDGYTGNYKYVFGAGTRLKVIA
chain 2: DSGVVQSPRHIIKEKGGRSVLTCIPISGHSNVVWYQQTLGKELKFLIQHYEKVERDKGFLPSRFSVQQFDDYHSEMNMSALELEDSAMYFCASSGASAETLYFGSGTRLTVL
chain 3: not shown
chain 4: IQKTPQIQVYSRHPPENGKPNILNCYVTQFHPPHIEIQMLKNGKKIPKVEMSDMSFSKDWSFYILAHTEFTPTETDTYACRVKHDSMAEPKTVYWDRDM
chain 5: SIINFEKL

# Variants of: B1
# assay.notes: % of reporter cells activated (NFAT-GFP), raw; further: test concentration or dose not given here
endpoint.name: ratio to parent

chain 5 N4R = 0.362
chain 5 I2M = 0.913
chain 5 L8T = 0.885

P: chain 5 I3L
Q: chain 5 I3Q
Prompt line: Between the entries labelled P and Q , which has a larger ratio to parent value on record? Let me know the label of the one you choose.
Response line: P
